- System: Mycobacterium tuberculosis
- assay-info: Inhibition of full length Mycobacterium tuberculosis recombinant ZMP1 expressed in Escherichia coli BL21(DE3) using MCA-Pro-Leu-Gly-Leu-Dpa-Ala-Arg-NH2 as substrate at 100 uM by fluorometric analysis relative to control
readout-type: inhibition (%)

molecule | endpoint-value
C=Cc1[nH]c(C(C)NC(=O)c2ccc(=O)n(CC(=O)NCc3ccc(F)cc3)c2)nc1C (centres undefined) | 16
O=S(=O)(O)CCCSc1sc2ccc(Cl)cc2[n+]1CCCS(=O)(=O)O | 78
Cn1c(=O)c2c(nc(SCC(=O)O)n2Cc2ccc(Cl)cc2)n(C)c1=O | 28
O=C(NC(Cc1ccccc1)C(=O)O)/C(=C/c1cccc([N+](=O)[O-])c1)NC(=O)c1ccco1 (centres undefined) | 54
